target: Tyrosine-protein kinase CSK (Homo sapiens) (UniProt P41240); settings: at 1 µM;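 note: each value is an averaged inhibition reading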
Sequence (P41240 2-450 limits assumed): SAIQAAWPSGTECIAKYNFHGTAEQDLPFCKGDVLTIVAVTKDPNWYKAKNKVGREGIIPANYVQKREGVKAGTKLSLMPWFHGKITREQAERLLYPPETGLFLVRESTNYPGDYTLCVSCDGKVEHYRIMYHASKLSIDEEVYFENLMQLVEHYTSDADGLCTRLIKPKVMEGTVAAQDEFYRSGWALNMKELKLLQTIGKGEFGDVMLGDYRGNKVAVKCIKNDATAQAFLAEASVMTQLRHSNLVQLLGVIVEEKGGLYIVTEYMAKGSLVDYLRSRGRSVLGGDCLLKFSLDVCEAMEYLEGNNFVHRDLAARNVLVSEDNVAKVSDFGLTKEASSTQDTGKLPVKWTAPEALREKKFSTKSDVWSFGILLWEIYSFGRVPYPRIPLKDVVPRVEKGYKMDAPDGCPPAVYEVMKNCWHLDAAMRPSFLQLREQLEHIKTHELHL
observed_property: inhibition (%)

[[record]]
compound = "CNC(=O)c1cncc(/C=C/c2ccccc2C)c1"
result = 9.89

[[record]]
compound = "CCOc1ccc2c(-c3ccnc(Nc4cc(OC)cc(C(F)(F)F)c4)n3)cnn2n1"
result = 0.11

[[record]]
compound = "COc1ccc(-c2nn3ncccc3c2-c2ccnc(Nc3ccc(F)c(F)c3)n2)cc1"
result = 8.37

[[record]]
compound = "CS(=O)(=O)Nc1ccc(-c2ccc3c(NC(=O)C4CC4)n[nH]c3c2)cc1"
result = 0.41

[[record]]
compound = "NS(=O)(=O)c1cccc(N/C=C2\\C(=O)Nc3ccccc32)c1"
result = -0.23

[[record]]
compound = "COC(=O)Nc1nc2cc(Oc3ccc(NC(=O)Nc4ccccc4)cc3)ccc2[nH]1"
result = 1.41

[[record]]
compound = "O=C(O[C@H]1CN[C@H](C#Cc2cc3ncnc(Nc4ccc(OCc5cccc(F)c5)c(Cl)c4)c3s2)C1)N1CCOCC1"
result = 7.44

[[record]]
compound = "NS(=O)(=O)c1ccc(N/N=C2\\C(=O)Nc3ccc(C(=O)NCc4ccncc4)cc32)cc1"
result = 7.78

[[record]]
compound = "CC1=C(C(=O)Nc2ccc3[nH]ncc3c2)C(c2ccc(F)cc2)N=C(c2ccc(C(F)(F)F)nc2)N1 (centres undefined)"
result = 6.65


----------
target: Glycogen synthase kinase-3 beta (Homo sapiens) (UniProt P49841); details: at 1 µM;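 note: reported values are mean percent inhibition of GSK3B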
Sequence (P49841 whole entry, looked up): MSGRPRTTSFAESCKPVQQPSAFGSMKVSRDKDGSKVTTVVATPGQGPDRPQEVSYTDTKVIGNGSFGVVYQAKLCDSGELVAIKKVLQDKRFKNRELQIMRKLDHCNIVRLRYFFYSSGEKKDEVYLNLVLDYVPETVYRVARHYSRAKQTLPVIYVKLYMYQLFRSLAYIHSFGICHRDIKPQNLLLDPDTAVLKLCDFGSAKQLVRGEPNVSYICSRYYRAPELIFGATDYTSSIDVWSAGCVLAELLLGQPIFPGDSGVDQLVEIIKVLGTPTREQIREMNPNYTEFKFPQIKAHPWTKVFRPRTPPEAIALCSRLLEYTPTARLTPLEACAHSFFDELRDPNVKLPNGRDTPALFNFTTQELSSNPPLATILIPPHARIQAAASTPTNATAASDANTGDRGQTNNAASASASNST
observed_property: inhibition (%)

[[record]]
compound_string = "NS(=O)(=O)c1cccc(N/C=C2\\C(=O)Nc3ccccc32)c1"
observed_property = "inhibition"
result = 19.7

[[record]]
compound_string = "CC1(C)CC(n2cnc(-c3ccc(F)cc3)c2-c2ccnc(N)n2)CC(C)(C)N1"
observed_property = "inhibition"
result = 6.07

[[record]]
compound_string = "COc1ccc2ncn(-c3cc(O[C@H](C)c4ccccc4C(F)(F)F)c(C(N)=O)s3)c2c1"
observed_property = "inhibition"
result = 4.75


----------
Examples of compounds with documented inhibition follow.
molecular target: Protein kinase C gamma type (Homo sapiens) (UniProt P05129); conditions: at 0.1 µM;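 note: values are mean percent inhibition of PKC gamma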
observed_property: inhibition (%)

[[record]]
compound_string = "COc1ccc(-c2nn3ncccc3c2-c2ccnc(Nc3ccc(F)c(F)c3)n2)cc1"
result = 4.72

[[record]]
compound_string = "NS(=O)(=O)c1ccc(N/N=C2\\C(=O)Nc3cccc(CCc4ccncc4)c32)cc1"
result = -0.97

[[record]]
compound_string = "COC(=O)Nc1nc2ccc(Oc3ccc(NC(=O)Nc4cc(C(F)(F)F)ccc4F)cc3)cc2s1"
result = -2.55

[[record]]
compound_string = "CNC(=O)c1sc(-n2cnc3cc(OC)c(OC)cc32)cc1OCc1ccccc1C(F)(F)F"
result = 5.06

[[record]]
compound_string = "O=C(O[C@H]1CN[C@H](C#Cc2cc3ncnc(Nc4ccc(OCc5cccc(F)c5)c(Cl)c4)c3s2)C1)N1CCOCC1"
result = 4.27

[[record]]
compound_string = "Cc1cc(O)cc(C)c1/C=C/c1cncc(C(=O)OC(C)(C)C)c1"
result = 3.91

[[record]]
compound_string = "c1cnn2ncc(-c3ccnc(NCCCN4CCOCC4)n3)c2c1"
result = 3.52

[[record]]
compound_string = "NC(=O)c1ccc2c(-c3ccnc(NCCCO)n3)c(-c3ccc(F)cc3)nn2c1"
result = 3.3

[[record]]
compound_string = "Cc1c2ccc(N(C)c3ccnc(Nc4cccc(S(N)(=O)=O)c4)n3)cc2nn1C"
result = 1.65

[[record]]
compound_string = "COc1cccc(-n2ncc3c(N/N=C/c4ccc(C(=O)NCCN(C)C)cc4)ncnc32)c1"
result = 26.3

[[record]]
compound_string = "O=C1Nc2ccccc2/C1=C1\\CCc2cc(O)ccc21"
result = 2.96

[[record]]
compound_string = "Cc1cc(O)cc(C)c1/C=C/c1cncc(C(N)=O)c1"
result = 3.81

[[record]]
compound_string = "N#Cc1ccc2c(-c3ccnc(NC4CC4)n3)c(-c3ccc(F)cc3)nn2c1"
result = 1.4

[[record]]
compound_string = "CCS(=O)(=O)c1ccc(OC)c(Nc2ncc(-c3cccc(C(C)=O)c3)o2)c1"
result = 2.68

[[record]]
compound_string = "NS(=O)(=O)c1ccc(N/N=C2\\C(=O)Nc3ccc(C(=O)NCc4ccncc4)cc32)cc1"
result = 1.42


----------
target: Testis-specific serine/threonine-protein kinase 1 (Homo sapiens) (UniProt Q9BXA7); settings: at 0.1 µM;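 note: mean percent inhibition of TSSK1, from the GSK PKIS screening dataset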
Sequence (Q9BXA7 whole entry): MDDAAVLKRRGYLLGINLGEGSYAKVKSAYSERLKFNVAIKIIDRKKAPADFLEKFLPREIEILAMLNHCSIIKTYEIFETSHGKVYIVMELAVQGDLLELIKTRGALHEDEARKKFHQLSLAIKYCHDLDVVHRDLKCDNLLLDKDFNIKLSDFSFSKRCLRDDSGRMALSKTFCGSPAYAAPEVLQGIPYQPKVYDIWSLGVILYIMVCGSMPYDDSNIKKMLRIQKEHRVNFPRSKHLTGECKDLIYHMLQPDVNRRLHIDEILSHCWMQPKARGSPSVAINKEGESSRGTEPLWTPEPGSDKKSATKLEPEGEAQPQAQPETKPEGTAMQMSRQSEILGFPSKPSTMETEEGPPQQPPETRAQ
observed_property: inhibition (%)

[[record]]
compound_string = "COc1cc(N2CCN(C(C)C)CC2)ccc1Nc1nc(Nc2cccc(F)c2C(=O)O)c2cc[nH]c2n1"
test_system = "Testis-specific serine/threonine-protein kinase 1 (Homo sapiens) (UniProt Q9BXA7)"
result = 21.1

[[record]]
compound_string = "N#Cc1ccc2c(-c3ccnc(NC4CC4)n3)c(-c3ccc(F)cc3)nn2c1"
test_system = "Testis-specific serine/threonine-protein kinase 1 (Homo sapiens) (UniProt Q9BXA7)"
result = 1.44

[[record]]
compound_string = "O=C(Nc1n[nH]c2nnc(-c3cccnc3)cc12)C1CC1"
test_system = "Testis-specific serine/threonine-protein kinase 1 (Homo sapiens) (UniProt Q9BXA7)"
result = 0.18


----------
target: 5'-AMP-activated protein kinase catalytic subunit alpha-2 (Homo sapiens) (UniProt P54646); details: at 0.1 µM;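 note: mean inhibition measured on the AMPK complex of alpha2, beta1 and gamma1 subunits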
Sequence (P54646 whole entry, looked up): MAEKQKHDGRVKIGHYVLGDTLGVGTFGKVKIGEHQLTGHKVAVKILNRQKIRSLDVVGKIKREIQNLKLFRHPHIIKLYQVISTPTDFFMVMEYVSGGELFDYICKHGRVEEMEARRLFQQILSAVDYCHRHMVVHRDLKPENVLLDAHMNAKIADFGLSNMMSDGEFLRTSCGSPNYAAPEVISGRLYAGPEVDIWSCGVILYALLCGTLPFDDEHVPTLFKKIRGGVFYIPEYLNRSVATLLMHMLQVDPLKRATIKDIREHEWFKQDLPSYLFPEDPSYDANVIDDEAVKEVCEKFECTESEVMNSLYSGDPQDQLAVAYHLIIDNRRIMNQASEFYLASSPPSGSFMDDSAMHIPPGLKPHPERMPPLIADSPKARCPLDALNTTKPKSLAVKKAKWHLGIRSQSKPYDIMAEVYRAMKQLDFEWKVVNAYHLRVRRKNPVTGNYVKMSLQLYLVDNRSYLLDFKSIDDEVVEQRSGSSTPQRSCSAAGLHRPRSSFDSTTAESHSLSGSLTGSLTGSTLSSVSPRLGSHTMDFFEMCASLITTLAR
Description: GSK_PKIS: AMPKA2 (A2B1G1) mean inhibition at 0.1 uM [Nanosyn]
Examples of molecules with documented inhibition follow.
observed_property: inhibition (%)

[[record]]
molecule = "COc1cccc(-n2ncc3c(N/N=C/c4ccc(C(=O)NCCN(C)C)cc4)ncnc32)c1"
test_system = "5'-AMP-activated protein kinase catalytic subunit alpha-2 (Homo sapiens) (UniProt P54646)"
observed_property = "inhibition"
value_units = "%"
result = 2.3

[[record]]
molecule = "CS(=O)(=O)Nc1ccc(-c2cc(-c3ccccc3)cc(C(N)=O)c2N)cc1"
test_system = "5'-AMP-activated protein kinase catalytic subunit alpha-2 (Homo sapiens) (UniProt P54646)"
observed_property = "inhibition"
value_units = "%"
result = 5.24

[[record]]
molecule = "NS(=O)(=O)c1ccc(N/N=C2\\C(=O)Nc3ccc(C(=O)NCc4ccncc4)cc32)cc1"
test_system = "5'-AMP-activated protein kinase catalytic subunit alpha-2 (Homo sapiens) (UniProt P54646)"
observed_property = "inhibition"
value_units = "%"
result = 5.3

[[record]]
molecule = "Cn1c(-c2nonc2N)nc2cnccc21"
test_system = "5'-AMP-activated protein kinase catalytic subunit alpha-2 (Homo sapiens) (UniProt P54646)"
observed_property = "inhibition"
value_units = "%"
result = 0.94

[[record]]
molecule = "COC(=O)Nc1nc2ccc(Oc3ccc(NC(=O)Nc4cc(C(F)(F)F)ccc4F)cc3)cc2s1"
test_system = "5'-AMP-activated protein kinase catalytic subunit alpha-2 (Homo sapiens) (UniProt P54646)"
observed_property = "inhibition"
value_units = "%"
result = 0.72

[[record]]
molecule = "CCCNc1cccc(-n2ncc3c(N/N=C/c4ccncc4)ncnc32)c1"
test_system = "5'-AMP-activated protein kinase catalytic subunit alpha-2 (Homo sapiens) (UniProt P54646)"
observed_property = "inhibition"
value_units = "%"
result = -1.29

[[record]]
molecule = "CCS(=O)(=O)c1ccc(OC)c(Nc2ncc(-c3cccc(C(C)=O)c3)o2)c1"
test_system = "5'-AMP-activated protein kinase catalytic subunit alpha-2 (Homo sapiens) (UniProt P54646)"
observed_property = "inhibition"
value_units = "%"
result = -0.37

[[record]]
molecule = "CC1=C(C(=O)Nc2ccc3[nH]ncc3c2)C(c2ccc(F)cc2)N=C(c2ccc(C(F)(F)F)nc2)N1 (configuration not stated)"
test_system = "5'-AMP-activated protein kinase catalytic subunit alpha-2 (Homo sapiens) (UniProt P54646)"
observed_property = "inhibition"
value_units = "%"
result = 0.84

[[record]]
molecule = "O=C(O[C@H]1CN[C@H](C#Cc2cc3ncnc(Nc4ccc(OCc5cccc(F)c5)c(Cl)c4)c3s2)C1)N1CCOCC1"
test_system = "5'-AMP-activated protein kinase catalytic subunit alpha-2 (Homo sapiens) (UniProt P54646)"
observed_property = "inhibition"
value_units = "%"
result = 4.18

[[record]]
molecule = "O=C(O[C@H]1CN[C@H](C#Cc2cc3ncnc(Nc4ccc5c(ccn5Cc5cc(F)ccc5F)c4)c3s2)C1)N1CCOCC1"
test_system = "5'-AMP-activated protein kinase catalytic subunit alpha-2 (Homo sapiens) (UniProt P54646)"
observed_property = "inhibition"
value_units = "%"
result = 3.89

[[record]]
molecule = "c1ccc(-c2n[nH]cc2-c2ccnc(-c3ccc(OCCn4ccnc4)cc3)c2)nc1"
test_system = "5'-AMP-activated protein kinase catalytic subunit alpha-2 (Homo sapiens) (UniProt P54646)"
observed_property = "inhibition"
value_units = "%"
result = 2.92

[[record]]
molecule = "Fc1ccc(Nc2nccc(-c3c(-c4ccc(C(F)(F)F)cc4)nn4ncccc34)n2)cc1F"
test_system = "5'-AMP-activated protein kinase catalytic subunit alpha-2 (Homo sapiens) (UniProt P54646)"
observed_property = "inhibition"
value_units = "%"
result = 1.16


From: ChEMBL document CHEMBL1961873
